- experimental-details: in vitro
- condition-set: human
attribute-measured: viability at 8 day, 500 nM (%)
Report the figure in % without appending any unit label.

Prompt: Item O=C(Nc1nc2cccc(-c3ccc(CN4CCS(=O)(=O)CC4)cc3)n2n1)C1CC1 has what recorded viability at 8 day, 500 nM?
Response: 78.9

----------
Overview of reported IC50 across a group of molecules:
- Tested on: CD19 CAR T cells
- experimental-details: CAR T cell cytokine production (Luminex) under CD19 K562, KIP-1 or CD2/3/28 stimulation
- condition-set: Homo sapiens, T-cell, 72 h, read-out: Suppression of cytokine production, TNFa (IC50), CD3/CD28 stimulation, 72 h

Look over these answered cases.
>>> df
                           molecular_string  experimental_result
0  O=C(Nc1nc2cccc(-c3ccc(CN4CCS(=O)(=O)CC4)cc3)n2n1)C1CC1               793 nM
1  N#CCC1(n2cc(-c3ncnc4[nH]ccc34)cn2)CN(C2CCN(C(=O)c3ccnc(C(F)(F)F)c3F)CC2)C1             < 100 nM

From here, focus on the item given below.
Prompt: Item CC[C@@H]1CN(C(=O)NCC(F)(F)F)C[C@@H]1c1cnc2cnc3[nH]ccc3n12 has what recorded IC50?
Response: < 100 nM
